Data provenance: ChEMBL document CHEMBL1201862

Overview of reported AC50 across a group of compounds:
target: Cytochrome P450 2C19 (Homo sapiens, UniProt P33261); test: Cytochrome panel assay with activity outcomes. Panel member name: p450-cyp2c19 Compounds with AC50 equal or less than 10 uM are considered active; type: functional; conditions: read-out: AC50
Sequence (P33261 whole entry): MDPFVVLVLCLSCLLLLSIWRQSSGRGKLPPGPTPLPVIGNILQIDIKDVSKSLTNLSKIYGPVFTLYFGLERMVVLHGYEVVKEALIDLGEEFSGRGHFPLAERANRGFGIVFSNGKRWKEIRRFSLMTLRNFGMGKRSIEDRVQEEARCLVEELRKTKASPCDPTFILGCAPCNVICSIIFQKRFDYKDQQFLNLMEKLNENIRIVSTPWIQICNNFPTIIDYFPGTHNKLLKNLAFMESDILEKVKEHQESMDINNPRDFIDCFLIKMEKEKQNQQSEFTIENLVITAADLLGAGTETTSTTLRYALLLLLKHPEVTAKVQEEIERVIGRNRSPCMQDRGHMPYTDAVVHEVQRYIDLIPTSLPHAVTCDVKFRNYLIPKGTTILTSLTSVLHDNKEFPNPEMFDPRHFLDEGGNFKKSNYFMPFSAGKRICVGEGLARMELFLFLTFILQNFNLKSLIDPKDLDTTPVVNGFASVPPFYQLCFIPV
endpoint name: AC50

compound="N[C@H](C(=O)O)C1[C@H](C(=O)O)[C@H]1C(=O)O (stereo partly specified)" endpoint_name=AC50 experimental_value="31.6 µM (inconclusive)"
compound=N#Cc1cccc(-c2cc(NCc3cccnc3)ncn2)c1 endpoint_name=AC50 experimental_value="15.8 µM (inconclusive)"
compound=O=C(O)CCC(=O)N1CCc2cc(S(=O)(=O)NCc3cccs3)ccc21 endpoint_name=AC50 experimental_value="25.1 µM (inconclusive)"
compound=COc1ccc(-c2nnc(-c3ccc(OCC(C)C)cc3)o2)cc1 endpoint_name=AC50 experimental_value="7.08 µM (inconclusive)"
compound=CN1CCN(C(=O)c2ccc3c(=O)n4c(nc3c2)CCCCC4)CC1 endpoint_name=AC50 experimental_value="10 µM (inconclusive)"
compound=Oc1cc(CN2COc3ccccc32)c(O)cc1CNC1CCCCC1 endpoint_name=AC50 experimental_value="1.26 µM (inconclusive)"
compound=Cc1cccc(NC(=S)N/N=C/c2ccc([N+](=O)[O-])s2)c1 endpoint_name=AC50 experimental_value="1.12 µM (inconclusive)"
compound=CSc1nsc(/C=C/Nc2ccc(Cl)cc2)c1C#N endpoint_name=AC50 experimental_value="3.55 µM (inconclusive)"
compound=O=c1c(-c2ccc(Cl)cc2)nc2cnc(N3CCNCC3)nc2n1Cc1ccc(F)cc1 endpoint_name=AC50 experimental_value="39.8 µM (inconclusive)"
compound=C[C@@H](CCCCC(=O)Nc1ccc(C(F)(F)F)cc1)NCCc1c[nH]cn1 endpoint_name=AC50 experimental_value="15.8 µM (inconclusive)"
compound=CCOC(=O)c1[nH]c2ccc(Cl)cc2c1-c1ccccc1 endpoint_name=AC50 experimental_value="4.47 µM (inconclusive)"
compound="CCOC(=O)c1c(-c2ccc(C)cc2)csc1NC(=O)C1CC=CCC1C(=O)O (stereo unspecified)" endpoint_name=AC50 experimental_value="28.2 µM (inconclusive)"
compound=CNc1nc(-c2cccnc2)nc2ccccc12 endpoint_name=AC50 experimental_value="39.8 µM (inconclusive)"
compound=COc1cccc(Cn2c(=O)c(CCc3ccccc3)nc3cncnc32)c1 endpoint_name=AC50 experimental_value="25.1 µM (inconclusive)"
compound="O=C(NC(C(=O)c1ccccc1)n1cnccc1=O)c1ccccc1 (stereo unspecified)" endpoint_name=AC50 experimental_value="2.82 µM (inconclusive)"
compound=C[C@]12CC[C@@H]3C(=CCc4cc(O)ccc43)[C@@H]1CCC2=O endpoint_name=AC50 experimental_value="7.94 µM (inconclusive)"

* * *

target: Protein RecA (Mycobacterium tuberculosis, UniProt P9WHJ3); experiment: Fluorescence Cell-Free Homogeneous Dose Retest to Identify Inhibitors of RecA-Intein Splicing Activity. [Related pubchem assays (depositor defined):AID2097, AID2223, AID489010, AID492950]; type: functional
Calls of active or inactive are those of the source.
Classes used: active, inactive

compound=COC(=O)CS(=O)(=O)c1nnc([C@H](Cc2ccccc2)NC(=O)OC(C)(C)C)o1 discrete_label=active
compound=Cc1cccc(NC(=S)N/N=C2/CCCCc3ccccc32)c1 discrete_label=inactive
compound="CCCc1n[nH]c2c1C(c1c[nH]nc1-c1ccc(F)cc1)C(C#N)=C(N)O2 (stereo not drawn)" discrete_label=active
